Exercise: state measured inhibition for each of the compounds provided.
Assay: inhibitors of Chlamydomonas gravitaxis, primary screen, whole organism, Chlamydomonas reinhardtii, WT vs cilia-less mutant, absorbance, 96-well (AID 463189);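 also: 0% = wild type cc124 cells in DMSO and 100% = ciliumless bld1 mutant cells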
Conditions: OD600 absorbance, 2 days, at 10 µM, active compounds read high
Give bare numbers, in %.

- compound: "CC1(C)CC(NC(=O)C23CCC(C)(/C(=N/O)C2)C3(C)C)CC(C)(C)N1 (stereo not given)"
  units: "%"
  inhibition: -6.59
- compound: "CC(C)Sc1nc(N2CCCC2)c2c(c1C#N)CC(C)(C)OC2"
  units: "%"
  inhibition: 48.4
- compound: "CCOC(=O)c1[nH]c2ccccc2c1NC(=O)CCN1CCN(C(=O)OCC)CC1"
  units: "%"
  inhibition: -5.66

Each compound below has a recorded value; state its inhibition.
1. CCCOc1ccc(/C(O)=C2/C(=O)C(=O)N(CCN(C)C)C2c2ccc(OC)c(OC)c2)cc1 (stereo not given)
2. CCSc1nc(O)c(C2OC(=O)c3c2ccc(OC)c3OC)c(=O)n1-c1ccccc1 (stereo not given)

Ans:
[8, -7.19]

---

Assay: inhibitors of Chlamydomonas gravitaxis, primary screen, whole organism, Chlamydomonas reinhardtii, WT vs cilia-less mutant, absorbance, 96-well (AID 463189);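 also: 0% = wild type cc124 cells in DMSO and 100% = ciliumless bld1 mutant cells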
Details: OD600 absorbance, 2 days, at 10 µM
Activity calls are given as the source filed them.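 How the source made its calls: active means inhibition at or above 50% relative to wild type and mutant plate controls; inactive means inhibition below 50%.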
Mark one answer only. Choices: true = active, false = inactive

Use the examples below as a reference point.
- molecule: "Clc1cccc(-c2nn3c(COc4ccccc4)nnc3s2)c1"
  classLabel: "false"
- molecule: "COC(=O)C1=C(C)OC(N)=C(C#N)C1c1ccc(OC)c(OC)c1OC (stereo unspecified)"
  classLabel: "false"
- molecule: "CCOC(=O)CSC1=C(C#N)C(c2ccc3c(c2)OCO3)CC(=O)N1 (stereo unspecified)"
  classLabel: "false"
- molecule: "CCOC(=O)c1cc2c(=O)n3cccc(C)c3nc2n(C)c1=N"
  classLabel: "true"
- molecule: "O=C1C2ON(c3ccccc3)C(c3ccncc3)C2C(=O)N1c1ccccc1 (stereo unspecified)"
  classLabel: "false"

Q: Per the records of this test, what outcome belongs to CCCCC(C(=O)O)C(C)CC(=O)Nc1cccc(C(=O)O)c1 (stereo unspecified) ?
Ans: false

Q: Per the records of this test, what outcome belongs to COc1ccc(C2=Nn3c(nnc3-c3ccccn3)SC2)cc1 ?
Ans: false

Q: Per the records of this test, what outcome belongs to O=C(O)CCCc1ccccc1 ?
Ans: false

Q: Per the records of this test, what outcome belongs to COc1cccc(-c2nn3c(-c4ccco4)nnc3s2)c1 ?
Ans: false

Q: Per the records of this test, what outcome belongs to CC1(C)Cc2c(sc3nc(SCC#N)n(C4CCCCC4)c(=O)c23)CO1 ?
Ans: false

Q: Per the records of this test, what outcome belongs to c1ccc(-c2ccc(C(c3ccccc3)n3ccnc3)cc2)cc1 (stereo unspecified) ?
Ans: false

---

Assay: inhibitors of mutant huntingtin aggregation, primary screen, imaging, exon1htt(103Q)mCFP cells, high-content imaging (AID 483);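 also: compound exposure lasted 3 days before fixation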
Settings: exon1htt(103Q)mCFP cell line, aggregate imaging, at 2 µM; active compounds read high
parameter: inhibition of aggregation (%)
Give bare numbers, in %.

Each molecule below has a recorded value; state its inhibition of aggregation.
1. COc1ccc(CCN(C)CCCC(C#N)(c2cc(OC)c(OC)c(OC)c2)C(C)C)cc1OC (stereo not given)
2. CNCCCC12CCC(c3ccccc31)c1ccccc12

Ans:
[6, 19.8]

Each molecule below has a recorded value; state its inhibition of aggregation.
1. CN1CCCN=C1COC(=O)C(O)(c1ccccc1)C1CCCCC1 (stereo not given)
2. CC1(C2(O)CC(c3ccccc3)ON2)CCCCC1 (stereo not given)
3. CC(=O)[C@H]1[C@H](C#N)C[C@H]2[C@@H]3CC=C4C[C@@H](O)CC[C@]4(C)[C@H]3CC[C@@]21C

Ans:
1. 15.9
2. 41.9
3. -4.8

Each molecule below has a recorded value; state its inhibition of aggregation.
1. O=C(Nc1ccc2c(c1)OCO2)c1cncc(Br)c1
2. CC(=O)N=c1sc(S(N)(=O)=O)nn1C
3. COc1ccc(-c2onc(C)c2-c2ccccc2)c(O)c1
4. COc1ccc(NC(=O)CSC2=C(C#N)C(c3ccco3)C3=C(CCCC3=O)N2)c(OC)c1 (stereo not given)
5. CC(=O)OCC(=O)[C@@]1(OC(C)=O)[C@@H](C)C[C@H]2[C@@H]3C[C@H](F)C4=CC(=O)C=C[C@]4(C)[C@@]3(F)[C@@H](O)C[C@@]21C

Ans:
-11.9
7.8
-9.9
-5.2
-7.2
